Items are presented alongside their recorded isoTOP-ABPP ratio Q9BTA9_C553.
MEASURED_TARGET: cysteines in MDA-MB-231 and Ramos cells (Homo sapiens, UniProt Q9BTA9)
Sequence (Q9BTA9 whole entry, the tested form may be a part): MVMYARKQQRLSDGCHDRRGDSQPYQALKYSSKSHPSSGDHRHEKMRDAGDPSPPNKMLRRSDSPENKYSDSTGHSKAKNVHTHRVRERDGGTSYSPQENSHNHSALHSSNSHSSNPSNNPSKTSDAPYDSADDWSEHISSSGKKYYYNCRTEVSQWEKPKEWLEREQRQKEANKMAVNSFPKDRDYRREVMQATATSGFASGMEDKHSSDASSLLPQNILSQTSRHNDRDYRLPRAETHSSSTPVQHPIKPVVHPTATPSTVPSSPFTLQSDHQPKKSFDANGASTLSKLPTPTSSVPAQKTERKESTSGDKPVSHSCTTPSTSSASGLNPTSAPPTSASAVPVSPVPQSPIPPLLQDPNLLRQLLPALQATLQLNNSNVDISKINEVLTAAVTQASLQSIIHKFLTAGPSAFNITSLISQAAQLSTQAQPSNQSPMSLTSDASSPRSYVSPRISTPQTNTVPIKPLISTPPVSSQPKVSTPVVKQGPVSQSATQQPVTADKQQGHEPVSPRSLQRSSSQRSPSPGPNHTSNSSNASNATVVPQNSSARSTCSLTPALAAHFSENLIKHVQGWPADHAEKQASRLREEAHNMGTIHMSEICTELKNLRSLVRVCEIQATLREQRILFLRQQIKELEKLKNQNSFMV
ASSAY_OVERVIEW: Competitive isoTOP-ABPP in situ (fragment-treated cells)
Format: cell-based
CONDITION: 200 μM, insitu, 231
A bare number is all that is needed in reply.

# value of isoTOP-ABPP ratio Q9BTA9_C553, cysteines in MDA-MB-231 and Ramos cells (Homo sapiens, UniProt Q9BTA9), item O=C(CCl)NCCc1c[nH]c2ccccc12 [compound 13] = 1.4

# value of isoTOP-ABPP ratio Q9BTA9_C553, cysteines in MDA-MB-231 and Ramos cells (Homo sapiens, UniProt Q9BTA9), item CC1CCc2ccccc2N1C(=O)CCl (stereo not drawn) [compound 45] = 19.1

# value of isoTOP-ABPP ratio Q9BTA9_C553, cysteines in MDA-MB-231 and Ramos cells (Homo sapiens, UniProt Q9BTA9), item O=C(CCl)N1CCN(S(=O)(=O)c2ccccc2F)CC1 [compound 10] = 20.0

# value of isoTOP-ABPP ratio Q9BTA9_C553, cysteines in MDA-MB-231 and Ramos cells (Homo sapiens, UniProt Q9BTA9), item Cc1ccc(C=C(C#N)C(=O)NCCN2CCOCC2)cc1 [compound 41] = 1.0

# value of isoTOP-ABPP ratio Q9BTA9_C553, cysteines in MDA-MB-231 and Ramos cells (Homo sapiens, UniProt Q9BTA9), item O=C(CCl)NC12CC3CC(CC(C3)C1)C2 [compound 21] = 2.8

# value of isoTOP-ABPP ratio Q9BTA9_C553, cysteines in MDA-MB-231 and Ramos cells (Homo sapiens, UniProt Q9BTA9), item C=CC(=O)Nc1cc(F)c(N2CCN(C(=O)OC(C)(C)C)CC2)c(F)c1 [compound 38] = 1.1

---

MEASURED_TARGET: UBE2S C118 (Q16763) (Homo sapiens, UniProt Q16763)
Sequence (Q16763 whole entry): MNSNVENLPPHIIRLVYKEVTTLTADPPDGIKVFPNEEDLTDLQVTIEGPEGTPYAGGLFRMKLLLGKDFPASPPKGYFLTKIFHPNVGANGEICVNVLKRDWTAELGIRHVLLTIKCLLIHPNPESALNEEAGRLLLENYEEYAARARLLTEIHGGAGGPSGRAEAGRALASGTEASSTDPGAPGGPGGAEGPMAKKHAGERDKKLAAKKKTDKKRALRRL
ASSAY_OVERVIEW: Competitive isoTOP-ABPP, cell lysates
Assay type: binding
CONDITION: 500 μm in-vitro ramos
Items are presented alongside their recorded isoTOP-ABPP ratio (reactivity profile), Q16763_C118.
A bare number is all that is needed in reply.

# value of isoTOP-ABPP ratio (reactivity profile), Q16763_C118, UBE2S C118 (Q16763) (Homo sapiens, UniProt Q16763), item O=C(CCl)N1CCOCC1 [compound 22] = 0.9

# value of isoTOP-ABPP ratio (reactivity profile), Q16763_C118, UBE2S C118 (Q16763) (Homo sapiens, UniProt Q16763), item O=C(/C=C/c1ccccc1)Nc1cc(C(F)(F)F)cc(C(F)(F)F)c1 [compound 26] = 0.9

# value of isoTOP-ABPP ratio (reactivity profile), Q16763_C118, UBE2S C118 (Q16763) (Homo sapiens, UniProt Q16763), item CC(C)CCOCCNC(=O)CCl [compound 27] = 0.9

---

MEASURED_TARGET: cysteines in MDA-MB-231 and Ramos cells (Homo sapiens, UniProt P04406)
Sequence (P04406 whole entry, the tested form may be a part): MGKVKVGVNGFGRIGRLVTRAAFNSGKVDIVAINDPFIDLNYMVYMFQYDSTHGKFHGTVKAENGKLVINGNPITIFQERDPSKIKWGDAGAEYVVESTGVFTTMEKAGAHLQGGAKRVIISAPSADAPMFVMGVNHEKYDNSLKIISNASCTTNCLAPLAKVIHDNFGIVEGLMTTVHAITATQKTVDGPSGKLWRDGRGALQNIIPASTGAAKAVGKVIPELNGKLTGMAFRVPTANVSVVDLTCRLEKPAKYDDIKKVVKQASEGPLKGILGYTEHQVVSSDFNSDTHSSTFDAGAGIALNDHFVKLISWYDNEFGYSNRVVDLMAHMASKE
ASSAY_OVERVIEW: Competitive isoTOP-ABPP in situ (fragment-treated cells)
Assay type: cell-based
CONDITION: 200 μM, insitu, 231
PARAMETER_MEASURED: isoTOP-ABPP ratio P04406_C152
A bare number is all that is needed in reply.

Worked set:
{"COMPOUND": "O=C(CCl)NCCc1c[nH]c2ccccc12", "MEASURED_TARGET": "cysteines in MDA-MB-231 and Ramos cells (Homo sapiens, UniProt P04406)", "isoTOP-ABPP ratio P04406_C152": 0.9}
{"COMPOUND": "O=C(CCl)NC(=O)NC12CC3CC(CC(C3)C1)C2", "MEASURED_TARGET": "cysteines in MDA-MB-231 and Ramos cells (Homo sapiens, UniProt P04406)", "isoTOP-ABPP ratio P04406_C152": 0.9}
{"COMPOUND": "O=C(CCl)N1CCN(S(=O)(=O)c2ccccc2F)CC1", "MEASURED_TARGET": "cysteines in MDA-MB-231 and Ramos cells (Homo sapiens, UniProt P04406)", "isoTOP-ABPP ratio P04406_C152": 1.0}
{"COMPOUND": "COc1ccccc1OCCNC(=O)CCl", "MEASURED_TARGET": "cysteines in MDA-MB-231 and Ramos cells (Homo sapiens, UniProt P04406)", "isoTOP-ABPP ratio P04406_C152": 0.8}
{"COMPOUND": "CC1CCc2ccccc2N1C(=O)CCl (stereo not drawn)", "MEASURED_TARGET": "cysteines in MDA-MB-231 and Ramos cells (Homo sapiens, UniProt P04406)", "isoTOP-ABPP ratio P04406_C152": 20.0}

Please look at the following compound next.
Notebook: `C=CC(=O)N(Cc1cccnc1)c1cc(C(F)(F)F)cc(C(F)(F)F)c1` , isoTOP-ABPP ratio P04406_C152 read as 0.8

---

MEASURED_TARGET: XPO1 C34 (O14980) (Homo sapiens, UniProt O14980)
Sequence (O14980 whole entry): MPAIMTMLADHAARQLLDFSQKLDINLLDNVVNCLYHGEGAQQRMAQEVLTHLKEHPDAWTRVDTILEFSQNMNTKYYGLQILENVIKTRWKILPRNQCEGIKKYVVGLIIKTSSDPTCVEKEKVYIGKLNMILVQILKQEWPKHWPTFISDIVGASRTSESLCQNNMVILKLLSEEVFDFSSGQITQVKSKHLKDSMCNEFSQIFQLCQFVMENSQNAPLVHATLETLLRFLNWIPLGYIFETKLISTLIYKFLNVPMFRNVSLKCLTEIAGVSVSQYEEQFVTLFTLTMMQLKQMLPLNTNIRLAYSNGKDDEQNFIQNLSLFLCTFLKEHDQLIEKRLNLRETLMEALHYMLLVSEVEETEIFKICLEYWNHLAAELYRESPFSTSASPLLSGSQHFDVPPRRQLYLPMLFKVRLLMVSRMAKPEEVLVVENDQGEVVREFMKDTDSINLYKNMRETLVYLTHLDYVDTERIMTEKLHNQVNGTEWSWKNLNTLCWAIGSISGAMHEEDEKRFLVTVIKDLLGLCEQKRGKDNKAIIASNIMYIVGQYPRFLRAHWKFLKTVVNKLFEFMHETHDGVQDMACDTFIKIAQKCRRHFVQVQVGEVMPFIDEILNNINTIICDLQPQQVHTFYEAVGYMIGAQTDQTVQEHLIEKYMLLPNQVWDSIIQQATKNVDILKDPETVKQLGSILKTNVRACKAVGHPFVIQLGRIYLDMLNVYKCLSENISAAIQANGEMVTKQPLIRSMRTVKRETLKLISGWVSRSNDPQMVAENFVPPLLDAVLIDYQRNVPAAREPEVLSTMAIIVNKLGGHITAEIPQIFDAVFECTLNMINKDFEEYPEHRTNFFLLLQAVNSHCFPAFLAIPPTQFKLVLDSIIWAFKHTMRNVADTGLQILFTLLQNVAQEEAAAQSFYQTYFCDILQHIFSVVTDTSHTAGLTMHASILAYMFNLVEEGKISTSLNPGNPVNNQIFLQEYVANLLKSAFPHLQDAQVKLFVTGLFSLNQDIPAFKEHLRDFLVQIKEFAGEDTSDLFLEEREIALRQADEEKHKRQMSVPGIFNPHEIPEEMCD
ASSAY_OVERVIEW: Competitive isoTOP-ABPP, cell lysates
Format: binding
CONDITION: 500 μM, invitro, 231
PARAMETER_MEASURED: isoTOP-ABPP ratio, O14980_C34
A bare number is all that is needed in reply.

Worked set:
{"ENTRY_SMILES": "O=C(CCl)NC(=O)NC12CC3CC(CC(C3)C1)C2", "isoTOP-ABPP ratio, O14980_C34": 1.2}
{"ENTRY_SMILES": "O=C(CCl)N1CCN(S(=O)(=O)c2ccccc2F)CC1", "isoTOP-ABPP ratio, O14980_C34": 1.2}

# value of isoTOP-ABPP ratio, O14980_C34, XPO1 C34 (O14980) (Homo sapiens, UniProt O14980), item `C=CC(=O)N(c1ccccc1)c1ccc(Br)cc1` = 1.1

---

Items are presented alongside their recorded isoTOP-ABPP ratio Q93009_C223.
MEASURED_TARGET: cysteines in MDA-MB-231 and Ramos cells (Homo sapiens)
ASSAY_OVERVIEW: Competitive isoTOP-ABPP in situ (fragment-treated cells)
Assay type: cell-based
CONDITION: 200 μM, insitu, 231
A bare number is all that is needed in reply.

Notebook: `CC(C)CCOCCNC(=O)CCl` , isoTOP-ABPP ratio Q93009_C223 read as 1.1

Notebook: `O=C(CCl)NC12CC3CC(CC(C3)C1)C2` , isoTOP-ABPP ratio Q93009_C223 read as 1.8

Notebook: `COc1ccccc1OCCNC(=O)CCl` , isoTOP-ABPP ratio Q93009_C223 read as 1.0

Notebook: `O=C(CCl)N1CCN(S(=O)(=O)c2ccccc2F)CC1` , isoTOP-ABPP ratio Q93009_C223 read as 2.5

Notebook: `O=C(CCl)Nc1cccc2ncccc12` , isoTOP-ABPP ratio Q93009_C223 read as 1.0

---

MEASURED_TARGET: cysteines in MDA-MB-231 and Ramos cells (Homo sapiens)
ASSAY_OVERVIEW: Competitive isoTOP-ABPP in situ (fragment-treated cells)
Type: cell-based
CONDITION: 200 μM, insitu, 231
PARAMETER_MEASURED: isoTOP-ABPP ratio Q9BQ69_C186
A bare number is all that is needed in reply.

Worked set:
{"COMPOUND": "O=C(CCl)N1CCN(S(=O)(=O)c2ccccc2F)CC1 [compound 10]", "isoTOP-ABPP ratio Q9BQ69_C186": 2.4}
{"COMPOUND": "O=C(CCl)NCCc1c[nH]c2ccccc12 [compound 13]", "isoTOP-ABPP ratio Q9BQ69_C186": 1.4}
{"COMPOUND": "C=CC(=O)N(Cc1cccnc1)c1cc(C(F)(F)F)cc(C(F)(F)F)c1 [compound 31]", "isoTOP-ABPP ratio Q9BQ69_C186": 0.5}

# value of isoTOP-ABPP ratio Q9BQ69_C186, cysteines in MDA-MB-231 and Ramos cells (Homo sapiens), item CC1CCc2ccccc2N1C(=O)CCl (stereo not drawn) [compound 45] = 3.3

# value of isoTOP-ABPP ratio Q9BQ69_C186, cysteines in MDA-MB-231 and Ramos cells (Homo sapiens), item CC(C)CCOCCNC(=O)CCl [compound 27] = 2.4

# value of isoTOP-ABPP ratio Q9BQ69_C186, cysteines in MDA-MB-231 and Ramos cells (Homo sapiens), item O=C(CCl)Nc1cccc2ncccc12 [compound 51] = 1.2

---

MEASURED_TARGET: ACAT1 C126 (P24752) (Homo sapiens, UniProt P24752)
Sequence (P24752 34-427): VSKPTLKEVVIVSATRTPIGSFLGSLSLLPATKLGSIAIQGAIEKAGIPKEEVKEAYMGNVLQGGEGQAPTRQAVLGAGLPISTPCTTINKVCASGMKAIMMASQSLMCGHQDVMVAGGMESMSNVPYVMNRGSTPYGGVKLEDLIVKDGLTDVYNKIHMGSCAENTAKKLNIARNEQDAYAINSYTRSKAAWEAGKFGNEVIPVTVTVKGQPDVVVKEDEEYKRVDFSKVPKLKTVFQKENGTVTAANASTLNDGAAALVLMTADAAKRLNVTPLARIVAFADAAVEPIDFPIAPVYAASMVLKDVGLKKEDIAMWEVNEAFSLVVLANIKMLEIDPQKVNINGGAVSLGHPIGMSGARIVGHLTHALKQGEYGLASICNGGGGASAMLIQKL
ASSAY_OVERVIEW: Competitive isoTOP-ABPP, cell lysates
Assay type: binding
CONDITION: 500 μM, invitro, 231
PARAMETER_MEASURED: isoTOP-ABPP ratio, P24752_C126

{"ENTRY_SMILES": "O=C(CCl)NC(=O)NC12CC3CC(CC(C3)C1)C2", "MEASUREMENT": 1.0}

Notebook: `C=CC(=O)N(Cc1cccnc1)c1ccc(Oc2ccccc2)c(C(F)(F)F)c1` , isoTOP-ABPP ratio, P24752_C126 read as 0.8

Notebook: `O=C(CCl)NCCc1c[nH]c2ccccc12` , isoTOP-ABPP ratio, P24752_C126 read as 9.6

Notebook: `Cn1cc(S(=O)(=O)N2CCOCC2)cc1C(=O)NC(=O)CCl` , isoTOP-ABPP ratio, P24752_C126 read as 1.5

Notebook: `O=C(CCl)N1CCN(S(=O)(=O)c2ccccc2F)CC1` , isoTOP-ABPP ratio, P24752_C126 read as 3.2
